- System: CN0375-F725-PDC KRAS spheroid viability
- test-description: Anticancer human tumor CN0375-F725-PDC patient-derived colon carcinoma cell line growth inhibition [KRAS2]
- conditions-used: second compound 0.316 µM; first compound 3.16 µM; stronger effect = lower value; spheroids with HUVEC and MSC
value-kind: viability, T/C (%)

{"compound": "CCNC(=O)CC1N=C(c2ccc(Cl)cc2)c2cc(OC)ccc2-n2c(C)nnc21 (stereo unspecified) + COc1cc2nc(C)nc(NC(C)c3cc(N)cc(C(F)(F)F)c3)c2cc1OC1CCOC1", "system": "CN0375-F725-PDC KRAS spheroid viability", "unit-annotation": "%", "observed-measurement": 63.4}
{"compound": "CCNC(=O)CC1N=C(c2ccc(Cl)cc2)c2cc(OC)ccc2-n2c(C)nnc21 (stereo unspecified) + CNCc1ccccc1-c1csc(C(C)Nc2nc(C)nc3cc(OC)c(OC)cc23)c1", "system": "CN0375-F725-PDC KRAS spheroid viability", "unit-annotation": "%", "observed-measurement": 58.4}
{"compound": "CC1COCCN1c1cc(-c2ccnn2C)c2ccnc(-c3ccn[nH]3)c2n1 (stereo unspecified) + COc1cc2nc(C)nc(NC(C)c3cc(N)cc(C(F)(F)F)c3)c2cc1OC1CCOC1", "system": "CN0375-F725-PDC KRAS spheroid viability", "unit-annotation": "%", "observed-measurement": 50.8}
{"compound": "COc1cc(Nc2ncc3c(n2)-c2ccc(Cl)cc2C(c2c(F)cccc2OC)=NC3)ccc1C(=O)O + C=CC(=O)N1CCN(c2nc(=O)n(-c3c(C)ccnc3C(C)C)c3nc(-c4c(O)cccc4F)c(F)cc23)C(C)C1", "system": "CN0375-F725-PDC KRAS spheroid viability", "unit-annotation": "%", "observed-measurement": 97}
{"compound": "CC(C)NCC(C(=O)N1CCN(c2ncnc3c2C(C)CC3O)CC1)c1ccc(Cl)cc1 (stereo unspecified) + C=CC(=O)N1CCN(c2nc(OCC3CCCN3C)nc3c2CCN(c2cccc4cccc(C)c24)C3)CC1CC#N", "system": "CN0375-F725-PDC KRAS spheroid viability", "unit-annotation": "%", "observed-measurement": 85.3}
{"compound": "O=C(c1cc(Cc2n[nH]c(=O)c3ccccc23)ccc1F)N1CCN(C(=O)C2CC2)CC1 + COc1cc2nc(C)nc(NC(C)c3cc(N)cc(C(F)(F)F)c3)c2cc1OC1CCOC1", "system": "CN0375-F725-PDC KRAS spheroid viability", "unit-annotation": "%", "observed-measurement": 98.8}
{"compound": "CC1COCCN1c1cc(-c2ccnn2C)c2ccnc(-c3ccn[nH]3)c2n1 (stereo unspecified) + C=CC(=O)N1CCN(c2nc(OCC3CCCN3C)nc3c2CCN(c2cccc4cccc(C)c24)C3)CC1CC#N", "system": "CN0375-F725-PDC KRAS spheroid viability", "unit-annotation": "%", "observed-measurement": 55.6}
{"compound": "CC(=O)OC12COC1CC(O)C1(C)C(=O)C(O)C3=C(C)C(OC(=O)C(O)C(NC(=O)OC(C)(C)C)c4ccccc4)CC(O)(C(OC(=O)c4ccccc4)C21)C3(C)C (stereo unspecified) + CC1OCC2(CCN(c3cnc(Sc4ccnc(N)c4Cl)c(N)n3)CC2)C1N", "system": "CN0375-F725-PDC KRAS spheroid viability", "unit-annotation": "%", "observed-measurement": 71.8}
{"compound": "CC1(C)CCC(CN2CCN(c3ccc(C(=O)NS(=O)(=O)c4ccc(NCC5CCOCC5)c([N+](=O)[O-])c4)c(Oc4cnc5[nH]ccc5c4)c3)CC2)=C(c2ccc(Cl)cc2)C1 + COc1cc2nc(C)nc(NC(C)c3cc(N)cc(C(F)(F)F)c3)c2cc1OC1CCOC1", "system": "CN0375-F725-PDC KRAS spheroid viability", "unit-annotation": "%", "observed-measurement": 59.4}
{"compound": "CC(C)NCC(C(=O)N1CCN(c2ncnc3c2C(C)CC3O)CC1)c1ccc(Cl)cc1 (stereo unspecified) + COc1cc2nc(C)nc(NC(C)c3cc(N)cc(C(F)(F)F)c3)c2cc1OC1CCOC1", "system": "CN0375-F725-PDC KRAS spheroid viability", "unit-annotation": "%", "observed-measurement": 81.3}
{"compound": "CC1OCC2(CCN(c3cnc(Sc4ccnc(N)c4Cl)c(N)n3)CC2)C1N (stereo unspecified) + C=CC(=O)N1CCN(c2nc(=O)n(-c3c(C)ccnc3C(C)C)c3nc(-c4c(O)cccc4F)c(F)cc23)C(C)C1", "system": "CN0375-F725-PDC KRAS spheroid viability", "unit-annotation": "%", "observed-measurement": 77.5}
{"compound": "Cn1nccc1Nc1nccc(-c2cc3c(s2)C(C)(C)N(CCN2CCOCC2)C3=O)n1 + CC1OCC2(CCN(c3cnc(Sc4ccnc(N)c4Cl)c(N)n3)CC2)C1N", "system": "CN0375-F725-PDC KRAS spheroid viability", "unit-annotation": "%", "observed-measurement": 42.1}
{"compound": "COc1cc2nccc(Oc3ccc(NC(=O)C4(C(=O)Nc5ccc(F)cc5)CC4)cc3)c2cc1OC + COc1cc2nc(C)nc(NC(C)c3cc(N)cc(C(F)(F)F)c3)c2cc1OC1CCOC1", "system": "CN0375-F725-PDC KRAS spheroid viability", "unit-annotation": "%", "observed-measurement": 52.6}
{"compound": "COc1cc2nccc(Oc3ccc(NC(=O)C4(C(=O)Nc5ccc(F)cc5)CC4)cc3)c2cc1OC + CNCc1ccccc1-c1csc(C(C)Nc2nc(C)nc3cc(OC)c(OC)cc23)c1", "system": "CN0375-F725-PDC KRAS spheroid viability", "unit-annotation": "%", "observed-measurement": 23}
{"compound": "Cn1nccc1Nc1nccc(-c2cc3c(s2)C(C)(C)N(CCN2CCOCC2)C3=O)n1 + COc1cc2nc(C)nc(NC(C)c3cc(N)cc(C(F)(F)F)c3)c2cc1OC1CCOC1", "system": "CN0375-F725-PDC KRAS spheroid viability", "unit-annotation": "%", "observed-measurement": 45.2}
{"compound": "CC1OCC2(CCN(c3cnc(Sc4ccnc(N)c4Cl)c(N)n3)CC2)C1N (stereo unspecified) + CNCc1ccccc1-c1csc(C(C)Nc2nc(C)nc3cc(OC)c(OC)cc23)c1", "system": "CN0375-F725-PDC KRAS spheroid viability", "unit-annotation": "%", "observed-measurement": 67.2}
{"compound": "CC1OCC2(CCN(c3cnc(Sc4ccnc(N)c4Cl)c(N)n3)CC2)C1N (stereo unspecified) + COc1cc2nc(C)nc(NC(C)c3cc(N)cc(C(F)(F)F)c3)c2cc1OC1CCOC1", "system": "CN0375-F725-PDC KRAS spheroid viability", "unit-annotation": "%", "observed-measurement": 71}
{"compound": "CC1COCCN1c1cc(-c2ccnn2C)c2ccnc(-c3ccn[nH]3)c2n1 (stereo unspecified) + CNCc1ccccc1-c1csc(C(C)Nc2nc(C)nc3cc(OC)c(OC)cc23)c1", "system": "CN0375-F725-PDC KRAS spheroid viability", "unit-annotation": "%", "observed-measurement": 49.5}
{"compound": "Cn1nccc1Nc1nccc(-c2cc3c(s2)C(C)(C)N(CCN2CCOCC2)C3=O)n1 + CNCc1ccccc1-c1csc(C(C)Nc2nc(C)nc3cc(OC)c(OC)cc23)c1", "system": "CN0375-F725-PDC KRAS spheroid viability", "unit-annotation": "%", "observed-measurement": 39.4}
{"compound": "COc1cc(Nc2ncc3c(n2)-c2ccc(Cl)cc2C(c2c(F)cccc2OC)=NC3)ccc1C(=O)O + COc1cc2nc(C)nc(NC(C)c3cc(N)cc(C(F)(F)F)c3)c2cc1OC1CCOC1", "system": "CN0375-F725-PDC KRAS spheroid viability", "unit-annotation": "%", "observed-measurement": 83.1}
{"compound": "O=C(c1cc(Cc2n[nH]c(=O)c3ccccc23)ccc1F)N1CCN(C(=O)C2CC2)CC1 + C=CC(=O)N1CCN(c2nc(OCC3CCCN3C)nc3c2CCN(c2cccc4cccc(C)c24)C3)CC1CC#N", "system": "CN0375-F725-PDC KRAS spheroid viability", "unit-annotation": "%", "observed-measurement": 101}

----------
- Test system: CN0375-F725-PDC KRAS spheroid viability
- test-description: Anticancer human tumor CN0375-F725-PDC cell line growth inhibition [KRAS2];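 note: spheroids exposed to agents for 7 days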
- conditions-used: curve of first compound; second compound 1 µM; spheroids with HUVEC and MSC
This listing pairs compounds with measured IC50.

{"compound": "CC(=O)OC12COC1CC(O)C1(C)C(=O)C(O)C3=C(C)C(OC(=O)C(O)C(NC(=O)OC(C)(C)C)c4ccccc4)CC(O)(C(OC(=O)c4ccccc4)C21)C3(C)C (centres undefined) + COc1cc2nc(C)nc(NC(C)c3cc(N)cc(C(F)(F)F)c3)c2cc1OC1CCOC1", "unit-annotation": "nM", "comparator": ">", "IC50": 3160}
{"compound": "COc1cc2nccc(Oc3ccc(NC(=O)C4(C(=O)Nc5ccc(F)cc5)CC4)cc3)c2cc1OC + CC1OCC2(CCN(c3cnc(Sc4ccnc(N)c4Cl)c(N)n3)CC2)C1N", "unit-annotation": "nM", "comparator": "=", "IC50": 2580}
{"compound": "COC(=O)c1ccc2c(C(=Nc3ccc(N(C)C(=O)CN4CCN(C)CC4)cc3)c3ccccc3)c(O)[nH]c2c1 + COc1cc2nc(C)nc(NC(C)c3cc(N)cc(C(F)(F)F)c3)c2cc1OC1CCOC1", "unit-annotation": "nM", "comparator": "=", "IC50": 2400}
{"compound": "CC(C)NCC(C(=O)N1CCN(c2ncnc3c2C(C)CC3O)CC1)c1ccc(Cl)cc1 (centres undefined) + C=CC(=O)N1CCN(c2nc(=O)n(-c3c(C)ccnc3C(C)C)c3nc(-c4c(O)cccc4F)c(F)cc23)C(C)C1", "unit-annotation": "nM", "comparator": ">", "IC50": 10000}
